B1: PDS5B (parent)
chain: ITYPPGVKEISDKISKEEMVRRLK

# Variants of: B1
# assay explanation: protein stability index of a GFP-peptide fusion (GPS, HEK-293T) (PSI 1-6); higher = more stable;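 also: lentivirally expressed fusions sorted by FACS into six bins by GFP to DsRed ratio, PSI derived from sequencing read proportions per bin multiplied by bin number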
# run parameters: c terminus: a fixed tail appended
assay endpoint: protein stability index

Use these answered entries as a reference point.
- mutation code: "V20Q"
  protein stability index: 4.03
- mutation code: "I14T"
  protein stability index: 4.08
- mutation code: "E18Y"
  protein stability index: 2.86
- mutation code: "E17Q"
  protein stability index: 3.17
- mutation code: "R22G"
  protein stability index: 4.72
- mutation code: "I14A"
  protein stability index: 4.5

[Q] What value of measured protein stability index is listed for R22N ?
[A] 4.54

[Q] What value of measured protein stability index is listed for I10G ?
[A] 4.61

[Q] What value of measured protein stability index is listed for I10D ?
[A] 4.88

[Q] What value of measured protein stability index is listed for I10F ?
[A] 4.31

[Q] What value of measured protein stability index is listed for Y3C ?
[A] 3.52

[Q] What value of measured protein stability index is listed for V7C ?
[A] 4

Attribution: the supplement of paper PMC10567573
